System: protein kinase
Test: HTS ATP-utilizing enzyme assay, off-chip mobility-shift format (Caliper HTS 250)
Type: biochemical, human
Conditions: test compound 10 μM; active = activity greater than three-sigma from the mean of the predominately inactive population for that enzyme
QUANTITY_KIND: protein kinase against which the compound exhibits inhibitory activity (Table 3)

COc1ccccc1-c1nnc(SCCSc2nnc(-c3ccccc3OC)n2-c2ccc(C)cc2)n1-c1ccc(C)cc1    CDK1
Cc1ccc(-n2c(SCc3ccc(C(=O)O)cc3)nnc2-c2ccc(Cl)cc2)cc1    SYK

* * *

Tested on: protein kinase
Assay: HTS ATP-utilizing enzyme assay, off-chip mobility-shift format (Caliper HTS 250)
Format: biochemical, human
Details: test compound 10 μM; active = activity greater than three-sigma from the mean of the predominately inactive population for that enzyme
QUANTITY_KIND: protein kinase against which the compound exhibits inhibitory activity (Table 3)

Some molecules with known protein kinase against which the compound exhibits inhibitory activity (Table 3) results, for comparison:
Cc1ccc(CSc2nnc(-c3ccncc3)n2-c2ccccc2)cc1    AURORA-A
Clc1cccc(NCc2nnc(SCc3ccc(Cl)cc3Cl)n2-c2ccccc2)c1    LCK
CCC(c1ccccc1)c1nnc(SCc2cccc3ccccc23)[nH]1 (stereo not drawn)    AURORA-A
CCn1c(SCc2ccccc2Br)nnc1-c1cc(-c2ccccc2)nc2ccccc12    CHEK2

// moving on: another record for protein kinase against which the compound exhibits inhibitory activity (Table 3)
Query block: Recall and state the measured protein kinase against which the compound exhibits inhibitory activity (Table 3) for CCSc1nnc(COc2ccc(CC)cc2)n1C .
Result block: AURORA-A

* * *

Target: protein kinase
Experiment: HTS ATP-utilizing enzyme assay, off-chip mobility-shift format (Caliper HTS 250)
Assay type: biochemical, human
Conditions: kinase(s) for which the compound exhibits protein kinase inhibitory activity; test compound 10 μM; active = greater than three-sigma from the mean activity of inactive compounds
QUANTITY_KIND: Kinase

Answered cases to consult:
N#CCSc1nnc(CNc2ccc(Cl)cc2)n1Cc1ccccc1    MSK1
CCc1nnc(NC(=O)CSc2nnc(-c3ccc(S(=O)(=O)N4CCN(C)CC4)cc3)n2CC)s1    CHEK2
COc1ccc(-n2c(S)nnc2-c2cccnc2)cc1    ABL1
Cc1ccc(-n2c(SCC(=O)O)nnc2-c2ccc([N+](=O)[O-])cc2)cc1    DAPK1
COc1ccc(-c2nnc(SCC(=O)N3CCOCC3)n2-c2ccccc2)cc1OC    AKT1

Query block: Retrieve Kinase on protein kinase; query CCOC(=O)CN(C(=O)CSc1nnc(CNc2ccc(F)cc2)n1-c1ccccc1)c1ccccc1
Result block: LCK

Query block: Write down measured Kinase (protein kinase) for this compound. Cc1cc(OCc2nnc(SCC(=O)O)n2Cc2ccccc2)ccc1Cl
Result block: HCK

* * *

Target: protein kinase
Test: HTS ATP-utilizing enzyme assay, off-chip mobility-shift format (Caliper HTS 250)
Format: biochemical, human
Details: kinase(s) for which the compound exhibits protein kinase inhibitory activity; test compound 10 μM; active = greater than three-sigma from the mean activity of inactive compounds
QUANTITY_KIND: Kinase

Cn1c(S)nnc1C1CCCCC1    AKT1
COc1cccc(-n2c(SCC(=O)NC(C)(C)C)nnc2-c2cccnc2)c1    AURORA-A
COCCn1c(SCC(=O)Nc2ccc(F)cc2)nnc1-c1ccncc1    FYN
COc1ccc(C(=O)CSc2nnc(C3CCCCC3)n2C)cc1    SYK
Cc1cc(C)nc(SCc2nnc(SCC(=O)Nc3cccc(C(F)(F)F)c3)n2C)n1    CDK1

Query block: Output measured Kinase for this item: O=C(CSc1nnc(-c2cc3ccccc3cc2O)n1Cc1ccco1)c1ccc(F)cc1
Result block: AURORA-A

Query block: Please report Kinase for the following compound: COc1ccccc1-c1nnc(S)n1Cc1ccccc1
Result block: AURORA-A

Query block: Identify Kinase associated with the compound COc1ccc(-c2nnc(SCC(=O)OCc3ccccc3)n2-c2ccc(OC)cc2)cc1
Result block: AKT1

Query block: Supply reported Kinase belonging to this compound: Fc1ccc(NCc2nnc(S)n2Cc2ccccc2)cc1
Result block: CHEK2

Query block: Write down Kinase measured for item CCn1c(COc2ccc(OC)cc2)nnc1SCC(=O)O
Result block: AKT1

Query block: In one line, give reported Kinase of the entry COc1ccccc1-n1c(SCC(=O)Nc2ccc3sc(C)nc3c2)nnc1-c1ccccc1O .
Result block: CDK1

Query block: Identify the reported Kinase for the following entry. COc1cc(NC(=O)CSc2nncn2N)cc(OC)c1
Result block: DYRK2

Query block: For the compound C=CCn1c(SCC(=O)Nc2cccc([N+](=O)[O-])c2)nnc1-c1ccncc1 , give its measured Kinase value.
Result block: FYN

Hey, just so you know, these numbers are from patent US20050288347A1.
